# Tested on: IL-6 in A549 cells stimulated with IL-1β
# ASSAY EXPLANATION: A549 Cell Assay to Measure Inflammation Markers (inhibition of IL-1β-induced IL-6)
# Format: cell-based
# STUDY CONDITIONS: Homo sapiens, A549, A549 Cell Assay to Measure Inflammation Markers; intrinsic activity, Emax class ranges
ENDPOINT LABEL: Emax

CCn1nc(-c2ccccn2)c2c1N[C@H](C)CS[C@H]2c1ccc(CCC(C)(C)O)cc1C (single isomer, unassigned); > 70%
Cn1nc(-c2ccccn2)c2c1NCCS[C@H]2c1ccc(Br)cc1Cl (single isomer, unassigned); < 50%
Cc1cc(Cl)ccc1C1SCCNc2c1c(-c1cc(Br)ccn1)nn2C (centres unmarked); < 50%
Cc1cc(Cl)ccc1C1SCC(C)Nc2c1c(-c1ccccn1)nn2C (single isomer, unassigned); < 50%
Cc1cc(Br)ccc1C1SC(C)CNc2c1c(C1CC1)nn2C (centres unmarked); < 50%
CCn1nc(-c2ccncn2)c2c1NCCSC2c1ccc(Br)cc1C (centres unmarked); > 50%
COc1cc(C2SCCNc3c2c(-c2ccccn2)nn3C)c(C)cc1Cl (centres unmarked); < 50%
Cc1nn(C)c2c1C(c1ccc(Cl)cc1Cl)SC(C)(C)CN2CC(O)C(F)(F)F (centres unmarked); < 50%
COc1ccnc(-c2nn(C)c3c2C(c2ccc(Cl)cc2C)SCCN3)c1 (centres unmarked); < 50%
Cn1nc(-c2ccccn2)c2c1NCCSC2c1ccc(C(N)=O)cc1Cl (centres unmarked); < 50%
CCn1nc(-c2ccccn2)c2c1N[C@@H](C)CS[C@H]2c1ccc(C#CC(C)(C)O)cc1C (single isomer, unassigned); > 70%
Cc1cc(Br)ccc1C1SCCNc2onc(-c3ccccn3)c21 (centres unmarked); < 50%
Cc1cc(Cl)ccc1C1SCCNc2c1c(-c1ccccn1)nn2CC(F)(F)F (centres unmarked); > 70%
Cc1cc(OCC(N)=O)ccc1[C@@H]1SC[C@@H](C)Nc2c1c(-c1ccccn1)nn2C (single isomer, unassigned); > 70%
Cc1cc(OCC#N)ccc1[C@@H]1SC[C@@H](C)Nc2c1c(-c1ccccn1)nn2C (single isomer, unassigned); > 50%
Cc1cc(Cl)ccc1[C@H]1SC(C)(C)CNc2c1c(C)nn2C (single isomer, unassigned); < 50%
Cc1cc(C#N)ccc1C1SCCNc2onc(-c3ccccn3)c21 (centres unmarked); < 50%

###

Listing: IC50 of selected molecules
Protein target, amino acids: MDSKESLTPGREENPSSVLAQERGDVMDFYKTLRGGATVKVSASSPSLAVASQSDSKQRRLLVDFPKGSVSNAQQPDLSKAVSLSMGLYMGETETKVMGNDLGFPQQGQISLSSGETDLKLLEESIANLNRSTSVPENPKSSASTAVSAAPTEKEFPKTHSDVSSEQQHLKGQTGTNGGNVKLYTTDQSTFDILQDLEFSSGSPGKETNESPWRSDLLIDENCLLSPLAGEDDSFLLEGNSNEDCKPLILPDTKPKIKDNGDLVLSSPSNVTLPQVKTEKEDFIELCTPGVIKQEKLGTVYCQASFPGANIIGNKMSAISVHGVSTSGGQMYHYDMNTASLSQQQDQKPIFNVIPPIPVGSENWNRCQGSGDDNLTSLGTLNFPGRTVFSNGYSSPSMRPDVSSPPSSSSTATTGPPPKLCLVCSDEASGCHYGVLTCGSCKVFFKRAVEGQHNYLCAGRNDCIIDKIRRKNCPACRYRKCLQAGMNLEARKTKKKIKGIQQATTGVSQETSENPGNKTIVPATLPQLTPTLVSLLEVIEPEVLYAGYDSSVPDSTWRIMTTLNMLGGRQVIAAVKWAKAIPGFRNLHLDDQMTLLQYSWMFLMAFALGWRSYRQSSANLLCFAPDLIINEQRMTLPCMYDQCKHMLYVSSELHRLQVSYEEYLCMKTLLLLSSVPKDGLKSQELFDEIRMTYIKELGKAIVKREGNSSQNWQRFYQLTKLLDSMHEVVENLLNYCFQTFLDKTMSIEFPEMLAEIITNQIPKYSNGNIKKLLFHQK
ENDPOINT LABEL: IC50

Cc1nn(C)c2c1C(c1ccc(Cl)cc1Cl)SC(C)(C)CN2CC(O)C(F)(F)F (stereo not drawn); > 10000 nM
COCCn1cc(-c2ccc(C3SCCNc4c3c(-c3ccccn3)nn4C)c(Cl)c2)cn1 (stereo not drawn) [U.15]; 1000 to 10000 nM
CCn1nc(-c2ccccn2)c2c1N[C@H](C)CS[C@H]2c1ccc(C(N)=O)cc1C (single isomer, unassigned) [M.46]; < 100 nM
Cn1nc([C@@H]2CCCN2)c2c1NCCSC2c1ccc(Cl)cc1Cl (mixture of isomers); > 10000 nM
Cn1nc(-c2ccccn2)c2c1NCCSC2c1ccc(Cl)cc1C1CC1 (stereo not drawn) [D.38]; < 100 nM
CC(C)c1nn(C)c2c1C(c1ccc(Cl)cc1Cl)SC(C)(C)CN2 (stereo not drawn) [D.64]; 100 to 1000 nM
Cc1cc(C(=O)Nc2cccnc2C)ccc1C1CCC(=O)Nc2c1c(C)nn2C (stereo not drawn) [O.1]; 1000 to 10000 nM
Cc1cc(Br)ccc1[C@H]1SC[C@@H](C)Nc2c1c(-c1nnco1)nn2C [M.63]; 100 to 1000 nM
Cc1ccc(Br)cc1C1SCCNc2c1c(-c1ccccn1)nn2C (stereo not drawn) [D.27]; < 100 nM
